# Procedure summary: Intrinsic clearance in rat at 0.05 mg/kg, iv administered as cassette dose or 2 mg/kg, iv administered as single dose
# Protocol conditions: in vivo
Readout type: CL (mL/min/kg)

{"Given smiles": "CN[C@H](CNc1cc(F)c(S(=O)(=O)Nc2ncc(F)s2)cc1Cl)CC1(C)CC1", "Units text": "mL/min/kg", "CL": 830}
{"Given smiles": "CN[C@H](CNc1cc(F)c(S(=O)(=O)Nc2ncc(F)s2)cc1Cl)C[Si](C)(C)C", "Units text": "mL/min/kg", "CL": 500}

[P] CN[C@H](CNc1cc(F)c(S(=O)(=O)Nc2ncc(F)s2)cc1Cl)Cc1ccccc1
[Q] CN[C@H](CNc1cc(F)c(S(=O)(=O)Nc2ncc(F)s2)cc1Cl)CC1CC1
*Q* // pick min by CL: P , Q Provide the label of your selected option as the answer.
*A* Q

// data source = ChEMBL document CHEMBL4706775
